Hi there, I'd appreciate the recorded Kd for every entry that follows.
- assayed_system: T1, PUF4 RNA-binding domain (Saccharomyces cerevisiae, UniProt P25339 537-888)
- T1 sequence: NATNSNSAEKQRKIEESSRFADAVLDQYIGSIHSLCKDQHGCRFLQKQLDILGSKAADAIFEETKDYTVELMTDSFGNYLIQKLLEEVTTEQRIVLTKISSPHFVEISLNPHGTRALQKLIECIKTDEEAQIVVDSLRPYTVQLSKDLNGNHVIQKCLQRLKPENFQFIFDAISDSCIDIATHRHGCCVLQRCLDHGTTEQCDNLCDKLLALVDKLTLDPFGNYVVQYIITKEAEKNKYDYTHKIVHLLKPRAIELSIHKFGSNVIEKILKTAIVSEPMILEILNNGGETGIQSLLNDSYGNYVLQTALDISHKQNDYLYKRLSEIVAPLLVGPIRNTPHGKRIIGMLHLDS
- method_notes: Mg; RNA-MaP; 20 mM Na-HEPES pH 7.4, 30 mM KOAc, 0.75 mM MgCl2, 0.1% Tween-20, 5% glycerol, 0.1 mg/mL BSA, 2 mM DTT; 25 C; 0.0125-409.6 nM protein
- cond: tags: N-His6-TEV cleaved; C-SNAP kept, Cy3B-labelled; label: tethered on chip by stalled RNA polymerase
Answers are plain numbers, in nM.

# annotated cases, reported Kd shown
>>> measured_number("Id_ii_S2_P5E.2_K5.1_C5.2_[C-2T]_H5.1_A5.1_F5.1_T5.2_[T11G]_[A12T] (ssRNA) RNA: UUUGAUUAAUAUGAUAUCGUUCUUUCUUUUGUAUUAUUAGUUUCUUUCUCGAUAUCAUAUUAAUCUUU")
3.67
>>> measured_number("Ic_S2_P4E.1_K4.1_C4.1_H4.1_A4.1_[T5A]_[A6C]_[T7C]_F4.1_[T8C]_T4.1 (ssRNA) RNA: UUUGAUUAAUAUGAUAUCGUUCUUUCUUGUAACCCAUUCUUUCUCGAUAUCAUAUUAAUCUUU")
666
>>> measured_number("UCUCUUUGUAUUUGUAUCUCUU (ssRNA) [Ib_S1_P5E.1_K5.1_C5.1_H5.1_A5.1_[A7T]_F5.1_[T8G]_T5.1]")
10.1

Please give Kd, item by item, for the list that follows.
1. Id_ii_S4_P5E.3_K5.2_C5.2_[T-1C]_H5.2_A5.1_F5.1_T5.2_[T11C]_[A12T] (ssRNA) RNA: UUUGACAACUGAUCGUUCUUUCUCCUAUAUUAUUACUUUCUUUCUCGAUCAGUUGUCUUU
2. UCUCUUUGUACAACGUCUCUU (ssRNA) [Ic_S1_P4E.1_K4.1_C4.1_H4.1_A4.1_[T5C]_[T7A]_F4.1_[T8C]_[A9G]_T4.1]
3. Id_ii_S2_P5E.2_K5.1_C5.2_[T-1A]_H5.1_A5.1_F5.1_T5.2_[A12T] (ssRNA) RNA: UUUGAUUAAUAUGAUAUCGUUCUUUCUCAUGUAUUAUUAUUUUCUUUCUCGAUAUCAUAUUAAUCUUU

Response:
1. 65.6
2. 92.3
3. 3.27

Please give Kd, item by item, for the list that follows.
1. UCUCUUUGUACCCUAUCUCUU (ssRNA) [Ic_S1_P4E.1_K4.1_C4.1_H4.1_A4.1_[T5C]_[A6C]_[T7C]_F4.1_T4.1]
2. Ic_S2_P5E.1_K5.1_C5.1_H5.1_A5.1_[T5A]_[T6C]_[A7T]_F5.1_[T8G]_[T9C]_[A10T]_T5.1 (ssRNA) RNA: UUUGAUUAAUAUGAUAUCGUUCUUUCUUGUAACUGCUUUCUUUCUCGAUAUCAUAUUAAUCUUU
3. Ie_S2_P3E.2_K3.1_C3.2_[+-2CCC]_H3.1_A3.1_F3.1_T3.2 (ssRNA) RNA: UUUGAUUAAUAUGAUAUCGUUCUUUCUCCCCUUGUAUAUAUAUUCUUUCUCGAUAUCAUAUUAAUCUUU
4. UCUCUUCUUGUAUAUAGCUCUCUU (ssRNA) [Id_ii_S1_P3E.2_K3.1_C3.2_H3.1_A3.1_F3.1_T3.2_[T9G]_[A10C]]

Response:
1: 7.5; 2: 189; 3: 0.969; 4: 4.12

Please give Kd, item by item, for the list that follows.
1. UCUCUUUGUAUACUUUCUCUU (ssRNA) [Ic_S1_P4E.1_K4.1_C4.1_H4.1_A4.1_[T7C]_F4.1_[A9T]_T4.1]
2. Ic_S2_P5E.1_K5.1_C5.1_H5.1_A5.1_[A7T]_F5.1_[T8C]_[T9A]_T5.1 (ssRNA) RNA: UUUGAUUAAUAUGAUAUCGUUCUUUCUUGUAUUUCAAUUCUUUCUCGAUAUCAUAUUAAUCUUU
3. UCUCUUUGUAUUUUCCAUUAUCUCUU (ssRNA) [Ie_S1_P5E.1_K5.1_C5.1_H5.1_A5.1_[+6TTCC]_F5.1_T5.1]
4. Ic_S2_P4E.1_K4.1_C4.1_H4.1_A4.1_[T5C]_[A6C]_F4.1_[T8A]_[A9G]_T4.1 (ssRNA) RNA: UUUGAUUAAUAUGAUAUCGUUCUUUCUUGUACCUAGUUCUUUCUCGAUAUCAUAUUAAUCUUU

Response:
1: 5.99; 2: 389; 3: 51.8; 4: 77.3
